# System: HE4
# method_description: HE4 levels in SKOV-3 cell lysates and media by sandwich ELISA
# Assay type: cell-based, Human
# run_conditions: cytotoxic agents, 24 hrs, serum free DMEM; versus untreated controls
Starred links: 1 amine or outer side, 2 acyl side, 3 side chain; linkers in the order of their positions; H or OH if unused. Positions of bridges follow the written chain, without caps; N, C: chain ends. Non-standard residues stand in square brackets, D forms with d. Residues, ends and D or L forms follow the SMILES beside them. Chains are numbered I, II in the order given. Actinocin(9to1) = Cc1c2oc3c(C)ccc(C(=O)[*:1])c3nc-2c(C(=O)[*:2])c(N)c1=O; NMeV = CN[C@H](C(=O)O)C(C)C; Sar = CNCC(=O)O

{"columns": ["compound", "effect on HE4 levels in SKOV-3"],
 "data": [
  ["COc1cc2ncnc(Nc3ccc(F)c(Cl)c3)c2cc1OCCCN1CCOCC1", "suppressed HE4 levels"],
  ["Cc1c2oc3c(C)ccc(C(=O)N[C@@H]4C(=O)N[C@H](C(C)C)C(=O)N5CCC[C@H]5C(=O)N(C)CC(=O)N(C)[C@@H](C(C)C)C(=O)O[C@@H]4C)c3nc-2c(C(=O)N[C@@H]2C(=O)N[C@H](C(C)C)C(=O)N3CCC[C@H]3C(=O)N(C)CC(=O)N(C)[C@@H](C(C)C)C(=O)O[C@@H]2C)c(N)c1=O [Actinomycin-D] (I: T[dV]P[Sar][NMeV] / II: T[dV]P[Sar][NMeV]; ester I:1-I:C, II:1-II:C; linker I:N-II:N via Actinocin(9to1))", "suppressed HE4 levels"]
]}

---

# Test system: HE4
# method_description: HE4 levels in SKOV-3 cell lysates and media by sandwich ELISA
# Assay type: cell-based, Human
# run_conditions: cytotoxic agents, 24 hrs, serum free DMEM; versus untreated controls
# Protocol: Various agents were examined by RT-PCR or by a sandwich ELISA. […] HE4 levels in cell lysates and media were evaluated by a sandwich ELISA. Cells were grown for 24 h in 100 mm cell culture dishes (Corning, New York, N.Y.), supernatant collected and lysates of washed and scraped cells prepared as described previously (Lange T S et al., 2007Chem Biol Drug Design, 70:302-10). […]

{"columns": ["compound", "effect on HE4 levels in SKOV-3"],
 "data": [
  ["CC(=O)O[C@H]1C(=O)[C@@]2(C)[C@H]([C@H](OC(=O)c3ccccc3)[C@]3(O)C[C@H](OC(=O)[C@H](O)[C@@H](NC(=O)c4ccccc4)c4ccccc4)C(C)=C1C3(C)C)[C@]1(OC(C)=O)CO[C@@H]1C[C@@H]2O [paclitaxel]", "suppressed HE4 levels"],
  ["N.N.[Cl][Pt][Cl] [cisplatin]", "suppressed HE4 levels"]
]}
